Molecular target: DAT Y156F mutant (Homo sapiens, UniProt Q01959, Y156F)
Sequence (Q01959 whole entry Y156F): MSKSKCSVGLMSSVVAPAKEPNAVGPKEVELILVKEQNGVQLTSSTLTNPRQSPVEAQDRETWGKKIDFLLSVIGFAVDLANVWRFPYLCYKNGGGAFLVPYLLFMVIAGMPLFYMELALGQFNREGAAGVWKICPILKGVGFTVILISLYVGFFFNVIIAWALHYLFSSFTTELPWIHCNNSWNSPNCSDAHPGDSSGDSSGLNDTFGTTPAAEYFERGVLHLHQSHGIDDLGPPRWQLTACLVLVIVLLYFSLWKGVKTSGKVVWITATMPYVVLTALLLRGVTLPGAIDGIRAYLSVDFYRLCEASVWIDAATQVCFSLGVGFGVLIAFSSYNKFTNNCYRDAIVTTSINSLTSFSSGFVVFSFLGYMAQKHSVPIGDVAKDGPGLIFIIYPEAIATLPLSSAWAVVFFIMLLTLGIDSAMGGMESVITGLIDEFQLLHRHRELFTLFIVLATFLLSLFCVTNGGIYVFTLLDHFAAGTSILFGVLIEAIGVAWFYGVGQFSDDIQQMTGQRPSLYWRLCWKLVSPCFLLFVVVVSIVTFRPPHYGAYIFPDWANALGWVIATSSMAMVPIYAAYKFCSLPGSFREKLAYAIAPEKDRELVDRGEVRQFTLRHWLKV
Conditions: read-out: Y156F Ki, COS7 cells, mean [SE interval]
value kind: Ki (nM)
Give the number; nM is assumed, so skip it.

Query :: Answer with the recorded Ki for the compound listed here: CC(O)CN1[C@H](C)CN(CCSC(c2ccc(F)cc2)c2ccc(F)cc2)C[C@@H]1C (stereo partly shown) [14a]
Result :: 269

---

Target: σ1 receptor (Cavia porcellus)
Sequence (Q60492 whole entry): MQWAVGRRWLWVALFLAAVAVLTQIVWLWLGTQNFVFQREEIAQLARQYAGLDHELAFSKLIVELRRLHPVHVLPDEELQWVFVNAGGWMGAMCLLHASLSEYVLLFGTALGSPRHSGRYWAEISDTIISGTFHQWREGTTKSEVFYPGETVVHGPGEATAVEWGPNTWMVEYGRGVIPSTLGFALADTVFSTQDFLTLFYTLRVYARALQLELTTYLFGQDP
Test: σ1 receptor binding assay, [3H]
Parameters: species or system guinea pig
Details: σ1R versus monoamine transporters
value kind: selectivity for σ1R over DAT and SERT (in words)

[
  {
    "compound": "CCC(=O)N1CCN(CCSC(c2ccc(F)cc2)c2ccc(F)cc2)CC1 [11d]",
    "measured on": "σ1 receptor (Cavia porcellus)",
    "assay result": "σ1R selective"
  },
  {
    "compound": "CC(=O)CN1CCN(CCSC(c2ccc(F)cc2)c2ccc(F)cc2)CC1",
    "measured on": "σ1 receptor (Cavia porcellus)",
    "assay result": "σ1R selective"
  }
]
